Overview of recorded IC50 for various molecules
Target: Human PDE4C (Homo sapiens (Human), UniProt Q08493)
Sequence (Q08493 2-712): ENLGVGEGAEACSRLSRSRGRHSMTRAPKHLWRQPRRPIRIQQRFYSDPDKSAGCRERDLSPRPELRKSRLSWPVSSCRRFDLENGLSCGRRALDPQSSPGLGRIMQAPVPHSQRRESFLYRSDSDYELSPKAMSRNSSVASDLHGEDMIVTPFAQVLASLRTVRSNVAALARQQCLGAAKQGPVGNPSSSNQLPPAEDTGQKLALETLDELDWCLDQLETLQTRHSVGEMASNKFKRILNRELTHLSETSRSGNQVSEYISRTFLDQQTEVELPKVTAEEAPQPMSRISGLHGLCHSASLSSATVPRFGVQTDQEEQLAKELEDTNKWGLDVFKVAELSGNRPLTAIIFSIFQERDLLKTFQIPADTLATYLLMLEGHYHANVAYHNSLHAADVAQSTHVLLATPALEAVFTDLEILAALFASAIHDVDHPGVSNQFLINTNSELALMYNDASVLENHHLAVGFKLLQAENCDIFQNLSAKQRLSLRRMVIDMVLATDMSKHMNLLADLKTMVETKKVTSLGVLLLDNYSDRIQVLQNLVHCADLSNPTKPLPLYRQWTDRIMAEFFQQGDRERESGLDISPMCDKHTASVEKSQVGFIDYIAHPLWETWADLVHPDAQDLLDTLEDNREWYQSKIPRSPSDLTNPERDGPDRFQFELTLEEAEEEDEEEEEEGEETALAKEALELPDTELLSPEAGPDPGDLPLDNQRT
Assay: PDE4C Scintillation Proximity Assay (SPA), inhibition of enzyme activity
Type: biochemical
Conditions: human recombinant enzyme, 1 μM cAMP substrate, 30 min at 25° C., geometric mean of 2-9 determinations unless otherwise indicated, read-out: Human PDE4C FL
Unit µM implied. Number only.

INSERT INTO measurements (molecule_smiles, experimental_readout, observed_result) VALUES
  ('O=C(c1nc2cccnn2c1-c1cc(F)c(Cl)c(F)c1)N1CCC1', 'IC50', 0.0239),
  ('Cc1ccc(-c2c(C(=O)N[C@@H]3C[C@@H]3F)nc3cccnn23)cc1Cl', 'IC50', 0.002),
  ('N#Cc1cc(F)c(-c2c(C(=O)NC3CC3)nc3cccnn23)cc1F', 'IC50', 0.0425),
  ('O=C(NC1CC1)c1nc2cccnn2c1-c1ccc2ccnn2c1', 'IC50', 0.0712),
  ('O=C(NC1CC1)c1nc2cccnn2c1-c1cc(F)c(Cl)c(F)c1', 'IC50', 0.00469),
  ('O=C(NC1CC1)c1nc2cccnn2c1-c1ccnc(C(F)(F)F)c1', 'IC50', 0.357);

Output measured IC50 for this item: N#Cc1ccc(-c2c(C(=O)N3CCC3)nc3cccnn23)cc1F 0.0458

Output measured IC50 for this item: O=C(NC1CC1)c1nc2cccnn2c1-c1ccc2ncoc2c1 0.136

Output measured IC50 for this item: O=C(NC12CC(C1)C2)c1nc2cccnn2c1-c1ccc(Cl)cc1 0.161

---

Target: Human PDE4C (Homo sapiens (Human))
Assay: PDE4C Scintillation Proximity Assay (SPA), inhibition of enzyme activity
Assay type: biochemical
Details: human recombinant enzyme, 1 μM cAMP substrate, 30 min at 25° C., geometric mean of 2-9 determinations unless otherwise indicated, read-out: Human PDE4C FL
EXPERIMENTAL_READOUT: IC50
Please report the result as a number followed by the unit.

INSERT INTO measurements (molecule_smiles, experimental_readout, observed_result) VALUES
  ('O=C(c1nc2cccnn2c1-c1ccc(Cl)cc1)N1CC(F)(F)C1', 'IC50', '126 nM'),
  ('O=C(NC1CC1)c1nc2cccnn2c1-c1ccnc(OC(F)F)c1', 'IC50', '24.9 nM');

// next entry
Output measured IC50 for this item: O=C(c1nc2cccnn2c1-c1ccc(Cl)c(Cl)c1)N1CCC1 40 nM

---

Target: Human PDE4C (Homo sapiens (Human), UniProt Q08493)
Test: PDE4C Scintillation Proximity Assay (SPA), inhibition of enzyme activity
Type: biochemical
Details: human recombinant enzyme, 1 μM cAMP substrate, 30 min at 25° C., geometric mean of 2-9 determinations unless otherwise indicated, read-out: Human PDE4C FL
EXPERIMENTAL_READOUT: pIC50
Kindly note that pIC50 refers to -log10 of the concentration in mol/L and answer with the value alone.

INSERT INTO measurements (molecule, observed_result) VALUES
  ('O=C(NC1CC1)c1nc2cccnn2c1-c1ccc(Cl)c(F)c1 [Example 10]', 8.16),
  ('CC1CC1NC(=O)c1nc2cccnn2c1-c1ccc(Cl)cc1 (stereo not shown) [Example 30]', 7.61),
  ('O=C(c1nc2cccnn2c1-c1ccc(Cl)cc1F)N1CCC1 [Example 52]', 6.95),
  ('CNC(=O)c1nc2cccnn2c1-c1ccc(Cl)c(F)c1 [Example 94]', 7.19),
  ('N#Cc1ccc(-c2c(C(=O)NC3CC3)nc3cccnn23)c(F)c1 [Example 79]', 6.53);

Return reported pIC50 for target or system Human PDE4C (Homo sapiens (Human), UniProt Q08493), item CC1(NC(=O)c2nc3cccnn3c2-c2ccc(Cl)cc2)CC1 [Example 33] . 6.90

---

Biological target: Human PDE4A (Homo sapiens (Human), UniProt P27815)
Sequence (P27815 other isoform, or with tags, fused parts or gaps): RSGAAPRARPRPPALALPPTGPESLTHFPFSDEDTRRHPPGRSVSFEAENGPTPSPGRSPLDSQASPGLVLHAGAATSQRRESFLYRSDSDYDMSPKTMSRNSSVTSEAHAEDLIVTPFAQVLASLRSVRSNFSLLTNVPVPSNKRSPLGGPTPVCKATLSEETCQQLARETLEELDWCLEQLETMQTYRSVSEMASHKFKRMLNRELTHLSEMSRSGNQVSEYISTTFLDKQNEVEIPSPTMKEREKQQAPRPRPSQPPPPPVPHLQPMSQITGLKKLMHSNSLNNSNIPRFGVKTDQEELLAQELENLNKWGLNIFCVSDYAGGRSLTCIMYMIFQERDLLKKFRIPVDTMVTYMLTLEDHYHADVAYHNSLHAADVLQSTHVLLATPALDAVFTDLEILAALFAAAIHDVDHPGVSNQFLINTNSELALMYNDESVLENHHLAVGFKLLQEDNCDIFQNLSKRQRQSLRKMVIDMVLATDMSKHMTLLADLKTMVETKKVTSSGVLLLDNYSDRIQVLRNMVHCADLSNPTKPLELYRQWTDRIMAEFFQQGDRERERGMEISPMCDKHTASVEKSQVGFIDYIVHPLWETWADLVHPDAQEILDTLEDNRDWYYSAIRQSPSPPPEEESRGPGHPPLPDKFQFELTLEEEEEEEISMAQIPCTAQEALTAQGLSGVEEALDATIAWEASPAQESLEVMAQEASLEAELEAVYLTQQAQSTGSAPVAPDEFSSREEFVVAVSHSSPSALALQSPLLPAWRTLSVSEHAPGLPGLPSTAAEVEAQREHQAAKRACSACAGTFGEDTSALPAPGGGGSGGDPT
Test: PDE4A Scintillation Proximity Assay (SPA), inhibition of enzyme activity
Type: biochemical
Details: human recombinant enzyme, 1 μM cAMP substrate, 30 min at 25° C., geometric mean of 2-9 determinations unless otherwise indicated, read-out: Human PDE4A FL
pIC50: −log10 of the molar value.
Classification scheme (pIC50): bin 0 = under 7, bin 1 = from 7 up to 8, bin 2 = 8 and over

Illustrative cases are given below, each with its answer.
INSERT INTO measurements (molecule_smiles, category) VALUES
  ('Cc1cc(C#N)c(F)cc1-c1c(C(=O)NC(C)C)nc2cccnn12', 'bin 1'),
  ('O=C(NC1CC1)c1nc2cccnn2c1-c1ccc(Cl)cc1F', 'bin 1');

Hi, small favor: classify Cc1ccc(-c2c(C(=O)N3CCC3)nc3cccnn23)cc1Cl by its pIC50 when you get a moment. bin 2

Hi, small favor: classify CN(C(=O)c1nc2cccnn2c1-c1ccc(Cl)cc1)C1CC1 by its pIC50 when you get a moment. bin 0

Hi, small favor: classify O=C(c1nc2cccnn2c1-c1cncc(Cl)c1)N1CCC1 by its pIC50 when you get a moment. bin 0

---

Biological target: Human PDE4D (Homo sapiens (Human), UniProt Q08499)
Sequence (Q08499 186-808): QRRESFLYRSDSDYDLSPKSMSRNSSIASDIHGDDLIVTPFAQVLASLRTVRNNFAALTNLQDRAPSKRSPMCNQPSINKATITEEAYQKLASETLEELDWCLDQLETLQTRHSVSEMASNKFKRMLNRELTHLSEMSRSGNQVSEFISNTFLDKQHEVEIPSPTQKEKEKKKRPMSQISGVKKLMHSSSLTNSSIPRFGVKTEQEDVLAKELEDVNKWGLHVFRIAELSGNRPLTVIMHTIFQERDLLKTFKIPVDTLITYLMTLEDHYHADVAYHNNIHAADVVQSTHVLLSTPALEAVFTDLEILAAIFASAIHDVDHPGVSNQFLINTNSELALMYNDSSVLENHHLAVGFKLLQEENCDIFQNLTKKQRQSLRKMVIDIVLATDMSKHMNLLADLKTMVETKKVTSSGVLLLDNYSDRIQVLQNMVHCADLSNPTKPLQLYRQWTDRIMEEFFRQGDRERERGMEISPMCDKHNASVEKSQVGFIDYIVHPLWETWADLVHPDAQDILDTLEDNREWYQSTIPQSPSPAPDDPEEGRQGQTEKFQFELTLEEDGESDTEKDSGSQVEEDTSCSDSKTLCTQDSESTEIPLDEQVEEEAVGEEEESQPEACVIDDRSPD
Assay: PDE4D Scintillation Proximity Assay (SPA), inhibition of enzyme activity
Type: biochemical
Details: human recombinant enzyme, 1 μM cAMP substrate, 30 min at 25° C., geometric mean of 2-9 determinations unless otherwise indicated, read-out: Human PDE4D FL
pIC50: −log10 of the molar value.
Overview of recorded pIC50 for various molecules

Return reported pIC50 for target or system Human PDE4D (Homo sapiens (Human), UniProt Q08499), item Cc1ccc(-c2c(C(=O)N3CCC3)nc3cccnn23)c(F)c1 . < 4.70

Return reported pIC50 for target or system Human PDE4D (Homo sapiens (Human), UniProt Q08499), item O=C(c1nc2cccnn2c1-c1ccc(Cl)cc1)N1CC(F)C1 . < 5.31

Return reported pIC50 for target or system Human PDE4D (Homo sapiens (Human), UniProt Q08499), item CCCNC(=O)c1nc2cccnn2c1-c1cncc(Cl)c1 . < 5.12

---

Overview of recorded pIC50 for various molecules
Target: UniProtKB Q08493
Experiment: PDE4C Scintillation Proximity Assay (SPA), inhibition of enzyme activity
Assay type: biochemical
Settings: human recombinant enzyme, 1 μM cAMP substrate, 30 min at 25° C., geometric mean of 2-9 determinations unless otherwise indicated, read-out: Human PDE4C FL
Kindly note that pIC50 refers to -log10 of the concentration in mol/L and answer with the value alone.

A selection of reference data follows.
INSERT INTO assay_data (molecule_smiles, observed_result) VALUES
  ('Cc1cc(-c2c(C(=O)N3CCC3)nc3cccnn23)cc(C)c1F', 6.82),
  ('Cc1cc(-c2c(C(=O)N3CCC3)nc3cccnn23)c(F)cc1C#N', 6.83);

// next entry
Output measured pIC50 for this item: CCCNC(=O)c1nc2cccnn2c1-c1ccc(Cl)cc1 6.95

---

Molecular target: Human PDE4D (Homo sapiens (Human))
Assay: PDE4D Scintillation Proximity Assay (SPA), inhibition of enzyme activity
Type: biochemical
Details: read-out: Human PDE4D FL
Where a name gives a salt, the structure may show the parent alone.
Overview of recorded IC50 for various molecules
Unit µM implied. Number only.

INSERT INTO results (molecule, system_name, experimental_readout, observed_result) VALUES
  ('O=C(c1nc2cccnn2c1-c1ccc2c(c1)OCCO2)N1CCC1 [Example 67, formate salt]', 'Human PDE4D (Homo sapiens (Human))', 'IC50', 2.26);

Output measured IC50 for this item: COc1c(F)cc(-c2c(C(=O)N3CCC3)nc3cccnn23)cc1F [Example 3] 2.41

Output measured IC50 for this item: O=C(c1nc2cccnn2c1-c1ccc2nccnc2c1)N1CCC1 [Example 62, formate salt] 11

Output measured IC50 for this item: O=C(c1nc2cccnn2c1-c1ccc(Cl)cc1)N1CCC1 [Example 1] 10.3

---

Target: Human PDE4D (Homo sapiens (Human))
Experiment: PDE4D Scintillation Proximity Assay (SPA), inhibition of enzyme activity
Assay type: biochemical
Conditions: human recombinant enzyme, 1 μM cAMP substrate, 30 min at 25° C., geometric mean of 2-9 determinations unless otherwise indicated, read-out: Human PDE4D FL
Overview of recorded IC50 for various compounds

A selection of reference data follows.
INSERT INTO assay_data (compound, experimental_readout, observed_result) VALUES
  ('COC1CN(C(=O)c2nc3cccnn3c2-c2ccc(Cl)cc2)C1 [Example 31]', 'IC50', '< 26.2 µM'),
  ('CC1CC1NC(=O)c1nc2cccnn2c1-c1ccc(Cl)cc1 (stereo not drawn) [Example 30]', 'IC50', '4 µM');

Return reported IC50 for target or system Human PDE4D (Homo sapiens (Human)), item N#Cc1cc(F)c(-c2c(C(=O)NC3CC3)nc3cccnn23)cc1F [Example 92] . > 1.44 µM

---

Target: Human PDE4A (Homo sapiens (Human))
Experiment: PDE4A Scintillation Proximity Assay (SPA), inhibition of enzyme activity
Format: biochemical
Details: human recombinant enzyme, 1 μM cAMP substrate, 30 min at 25° C., geometric mean of 2-9 determinations unless otherwise indicated, read-out: Human PDE4A FL
EXPERIMENTAL_READOUT: pIC50
Kindly note that pIC50 refers to -log10 of the concentration in mol/L and answer with the value alone.

A selection of reference data follows.
INSERT INTO assay_data (molecule_smiles, observed_result) VALUES
  ('Cc1ccc(-c2c(C(=O)N3CCC3)nc3cccnn23)c(F)c1', 6.99),
  ('O=C(c1nc2cccnn2c1-c1ccc(Cl)cc1)N1CC(F)(F)C1', 6.84),
  ('O=C(N[C@@H]1C[C@@H]1F)c1nc2cccnn2c1-c1ccc(Cl)cc1', 7.82);

// next entry
Output measured pIC50 for this item: CNC(=O)c1nc2cccnn2c1-c1cc(F)c(Cl)cc1F 7.20
